Measured growth inhibition, listed per entry for reference.
- assay.protocol: NCI Yeast Anticancer Drug Screen. Data for the rad50EPP+ strain (AID 151);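 further: 0% = growth of vehicle-treated control cultures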
- reported.conditions: S. cerevisiae rad50 mutant strain, at 3.7 µM, hits give high values
About 79,000 compounds went through this panel and 15% of them were active in at least one assay; those are over-represented in the sample as a whole.

{"compound": "CC(O)C(O)C(O)C(/C=N\\Nc1ccccc1)=N/Nc1ccccc1 (centres undefined)", "growth inhibition (%)": 26}
{"compound": "[O-][n+]1c2ccc(O)cc2nc2ccc(Cl)cc21", "growth inhibition (%)": 16}
{"compound": "Oc1ccc(NCn2c(=S)sc3ccccc32)cc1", "growth inhibition (%)": -21}
{"compound": "CN(C)c1ccc(Sc2ccc3nc(N)nc(N)c3c2)cc1", "growth inhibition (%)": 30}
{"compound": "CC(/C=C/c1ccc(Cl)cc1)=N\\NC(=S)NCC(C)C", "growth inhibition (%)": -5}
{"compound": "Clc1ccccc1C1OC1c1ccccc1Cl (centres undefined)", "growth inhibition (%)": -56}
{"compound": "Oc1c(Br)cc(Br)cc1C1CCCCC1", "growth inhibition (%)": 9}
{"compound": "O=C1NC(=O)C2C3C=CC(C3)C12 (centres undefined)", "growth inhibition (%)": 21}
{"compound": "Cn1c(=O)c(-c2ccccc2)c(N=[N+]=[N-])c2ccccc21", "growth inhibition (%)": 6}
{"compound": "NNc1c(F)c(F)cc(F)c1F", "growth inhibition (%)": -1}
{"compound": "CCCS(=O)(=O)Nc1ccc(Nc2c3ccccc3nc3ccccc23)c(OC)c1", "growth inhibition (%)": -21}
{"compound": "OC1CCCc2c1cc1ccc3cccc4ccc2c1c34 (centres undefined)", "growth inhibition (%)": 37}
{"compound": "N#C/C(=C\\c1cccc(OCc2ccccc2)c1)c1ccc([N+](=O)[O-])cc1", "growth inhibition (%)": -49}
{"compound": "O=C(O)c1ccccc1NC(=S)c1ccccc1", "growth inhibition (%)": 14}
{"compound": "COc1ccc2nc3cccc([N+](=O)[O-])c3c(NCCN(CCO)CCO)c2c1", "growth inhibition (%)": 13}
{"compound": "N#CC(C(=O)Nc1ccccc1)C1=C(Cl)C(=O)c2ccccc2C1=O (centres undefined)", "growth inhibition (%)": 43}
{"compound": "CCN(CC)[P+](c1ccccc1O)(N(CC)CC)N(CC)CC", "growth inhibition (%)": -26}
{"compound": "Brc1ccc(-c2cc3c(cc2C2SCCS2)OCO3)cc1", "growth inhibition (%)": -10}
{"compound": "O=C1c2cc([N+](=O)[O-])ccc2-c2cccc(F)c21", "growth inhibition (%)": 27}
{"compound": "Cc1c(C(=O)C(=O)c2ccccc2)c(C)c(C(=O)C(=O)c2ccccc2)c(C)c1C(=O)C(=O)c1ccccc1", "growth inhibition (%)": -1}
{"compound": "CCCCCCCCCCC1CCC(=O)O1 (centres undefined)", "growth inhibition (%)": 3}
{"compound": "CCOC(=O)C1=C(C(=O)c2ccccc2)C(c2ccccc2[N+](=O)[O-])C(C(=O)c2ccccc2)=C(C(=O)OCC)N1", "growth inhibition (%)": 7}
{"compound": "O=C1C(Nc2ccccc2)=C(Oc2ccccc2)C(=O)c2ccccc21", "growth inhibition (%)": 20}
{"compound": "O=C1c2ccccc2-c2nc3ccccc3nc21", "growth inhibition (%)": 28}
